- testedOn: 5-HT2C (Homo sapiens)
- Sequence (P28335 33-458): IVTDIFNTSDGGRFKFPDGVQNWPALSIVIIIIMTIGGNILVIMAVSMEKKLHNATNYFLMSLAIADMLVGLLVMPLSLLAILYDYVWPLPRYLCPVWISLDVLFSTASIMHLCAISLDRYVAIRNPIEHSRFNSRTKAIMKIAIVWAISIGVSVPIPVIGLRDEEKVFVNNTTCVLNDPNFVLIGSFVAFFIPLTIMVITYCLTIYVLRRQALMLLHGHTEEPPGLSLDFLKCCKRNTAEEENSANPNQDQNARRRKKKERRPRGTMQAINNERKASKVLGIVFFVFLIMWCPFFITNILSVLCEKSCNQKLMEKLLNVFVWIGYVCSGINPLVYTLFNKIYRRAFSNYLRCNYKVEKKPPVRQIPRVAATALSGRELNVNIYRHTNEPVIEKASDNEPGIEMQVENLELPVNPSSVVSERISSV
- experimentNotes: Intracellular calcium flux assay, HEK 293 cells stably expressing 5-HT2C;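 also: calcium dye fluorescence read on FLIPR Tetra as peak signal above baseline within 60 s of compound addition, seven concentrations from 10 pM to 10 µM, each in triplicate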
- details: at least three independent experiments, entries marked a (42, 50, 51, 52) single measurements, read-out: 5-HT2C mean EC50 ± SD
Labelling field: enter true (1) if recorded EC50 is less than 30 nM. Enter false (0) if it equals or exceeds that cut-off.

CCCOc1cc(F)cc2c1c(CCN(C)C)cn2C.Cl [Compound 33, hydrochloride]; false (0)
CCCn1cc(CCN(C)C)c2c(OCC)ccc(F)c21; false (0)
CN(C)CCc1cn(C)c2ccc(F)c(OCc3ccccc3)c12.Cl [Compound 52, hydrochloride]; false (0)

Check if EC50 falls below 30 nM for CCCn1cc(CCN(C)C)c2c(OC)c(F)ccc21.Cl [Compound 42, hydrochloride] . false (0)

Check if EC50 falls below 30 nM for CCOc1c(F)ccc2c1c(CCN(C)C)cn2CC.Cl [Compound 60, hydrochloride] . true (1)

Check if EC50 falls below 30 nM for CCOc1cc(F)cc2c1c(CCN(C)C)cn2C.Cl [Compound 32, hydrochloride] . false (0)

Check if EC50 falls below 30 nM for CCn1cc(CCN(C)C)c2c(OC)ccc(F)c21 . true (1)

Check if EC50 falls below 30 nM for CCCOc1ccc(F)c2c1c(CCN(C)C)cn2CC . false (0)

Check if EC50 falls below 30 nM for CCOc1ccc(F)c2c1c(CCN(C)C)cn2C . false (0)

Check if EC50 falls below 30 nM for CN(C)CCc1cn(C)c2cc(O)c(F)cc12 . false (0)

Check if EC50 falls below 30 nM for COc1c(F)ccc2c1c(CCN(C)C)cn2C.Cl [Compound 40, hydrochloride] . true (1)

Check if EC50 falls below 30 nM for COc1c(F)cc(F)c2c1c(CCN(C)C)cn2C.Cl [Compound 58, hydrochloride] . true (1)
